- protocol.text: Percent oral bioavailability evaluated in dog
- Format: ADME, organism-based, Canis lupus familiaris
- assay.setup: in vivo

compound | bioavailability, %
CC(C)C(NC(=O)Cn1c(-c2ccccc2)ncc(N)c1=O)C(=O)c1nnc(C(C)(C)C)o1 (stereo unspecified) | 31

----------
- protocol.text: Percent oral bioavailability evaluated in rat
- Format: ADME, organism-based
- assay.setup: in vivo

molecule | bioavailability [%]
CC(C)C(NC(=O)Cn1c(-c2ccccc2)ncc(N)c1=O)C(=O)c1nnc(C(C)(C)C)o1 (stereo unspecified) | 51
